Reference source: patent US6734179B2

Smiles Data: COc1ccc(C2=CCNCC2)c2sc(NC(=O)c3ccc(F)cc3)nc12.Cl
melting point: 268 to 275 °C
--
Smiles Data: COc1ccc(C2CCOCC2)c2sc(NC(=O)c3ccnc(CN4CCCC4)c3)nc12
melting point: 200 to 202 °C
--
Smiles Data: COc1ccc(C2CCCCC2)c2sc(NC(=O)c3ccc(F)cc3)nc12
melting point: 192 to 195 °C
--
Smiles Data: COC(=O)Nc1nc2c(OC)ccc(C3=CCCCC3)c2s1
melting point: 164 to 173 °C
--
Smiles Data: COc1ccc(C2CCOCC2)c2sc(NC(=O)N3CCC(O)CC3)nc12
melting point: 106 to 109 °C
--
Smiles Data: COc1ccc(C2CCNCC2)c2sc(NC(=O)N3CCOCC3)nc12.Cl
melting point: 314 to 315 °C
